Data origin, for the record: PubChem BioAssay (NCI)

System: A549/ATCC NSCLC
Assay: NCI-60 one-dose screen, 48 h (100 = growth as untreated, 0 = no growth, -100 = all killed)
Conditions: 10 µM unless noted
This is part of a sample that, as a whole, favours compounds with a hit. Of some 83,000 tested, about 20% had one in any assay.
assay.readout: growth (%)
Field format: number, assumed %, no unit text.

FC(F)(F)c1cc(Nc2cccc(Oc3ccc(NC4=NCCN4)nc3)c2)ccc1Cl : 12.1
C[C@H](CCC(=O)NCc1ccc(C(=O)Nc2ccccc2N)cc1)[C@H]1CC[C@H]2[C@@H]3[C@@H](O)C[C@@H]4C[C@H](O)CC[C@]4(C)[C@H]3CC[C@]12C : 90.3
Cc1cc(S(=O)(=O)N(C)C)cc(NCC(=O)NC(=O)NCC(C)C)c1C : 88
C#CCC#CCN1CCC[C@H]1C(=O)NCC(=O)OC : 97.6
Cc1cc(C(NC(=O)CCCCCNc2cccc3c2C(=O)N(C2CCC(=O)NC2=O)C3=O)c2ccc3c(c2)OC(F)(F)O3)c(O)c2ncccc12 (stereo not drawn) : 66.7

Prompt: Report measured growth; entry is Cc1ccc(-n2c(/C=C3\C(=O)Nc4ccccc43)ccc2CO)cc1
Response: 71.3

Prompt: Tell me its growth given N#C/C(=C\c1ccc(-c2ccc(Cl)cc2Cl)o1)c1ccc(F)cc1 as the entry.
Response: 100
